Measured values drawn from patent US20100260765A1 for this set.

TARGET ENTITY: T1, soluble KDR extracellular domain (ECD) (Calbiochem) (human, UniProt P35968 20-764)
T1 construct: extracellular domain; Bought protein; also called KDR-ECD; VEGF Receptor 2 D1-7, Cat. #676490
T1 sequence (P35968 20-764): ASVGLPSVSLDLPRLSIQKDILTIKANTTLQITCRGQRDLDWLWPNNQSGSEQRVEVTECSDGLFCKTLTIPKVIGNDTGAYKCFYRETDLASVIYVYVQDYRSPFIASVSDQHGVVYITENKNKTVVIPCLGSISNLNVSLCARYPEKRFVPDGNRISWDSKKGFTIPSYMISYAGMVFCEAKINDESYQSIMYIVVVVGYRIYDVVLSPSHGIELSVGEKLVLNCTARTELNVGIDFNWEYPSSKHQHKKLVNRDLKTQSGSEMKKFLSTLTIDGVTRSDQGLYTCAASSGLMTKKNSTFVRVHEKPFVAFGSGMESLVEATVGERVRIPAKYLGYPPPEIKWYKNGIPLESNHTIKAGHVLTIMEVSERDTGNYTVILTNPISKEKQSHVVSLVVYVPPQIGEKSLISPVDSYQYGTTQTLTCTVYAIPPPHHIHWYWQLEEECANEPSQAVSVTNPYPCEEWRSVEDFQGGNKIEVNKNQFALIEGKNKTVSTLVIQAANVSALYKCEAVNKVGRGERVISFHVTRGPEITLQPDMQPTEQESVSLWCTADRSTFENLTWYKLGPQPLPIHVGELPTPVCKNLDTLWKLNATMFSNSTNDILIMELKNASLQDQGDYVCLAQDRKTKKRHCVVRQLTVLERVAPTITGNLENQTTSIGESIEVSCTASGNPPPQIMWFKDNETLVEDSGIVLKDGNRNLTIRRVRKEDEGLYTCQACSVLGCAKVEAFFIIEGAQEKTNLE
PROCEDURE TEXT: Limited Antigen ELISA, KDR coat 25 ng/mL, supernatant 1:25

{"columns": ["BINDER", "ELISA reading"],
 "data": [
  ["29H3 (antibody, V domains shown, Fully human mAb from XenoMouse hybridoma, tested as hybridoma supernatant) VH: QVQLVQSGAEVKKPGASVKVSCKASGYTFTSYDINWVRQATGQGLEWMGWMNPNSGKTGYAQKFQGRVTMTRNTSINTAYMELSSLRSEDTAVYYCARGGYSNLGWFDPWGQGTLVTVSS VL: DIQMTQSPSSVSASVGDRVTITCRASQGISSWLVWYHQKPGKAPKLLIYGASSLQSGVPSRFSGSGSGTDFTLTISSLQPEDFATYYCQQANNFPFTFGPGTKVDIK", 1.03],
  ["24C9 (antibody, V domains shown, Fully human mAb from XenoMouse hybridoma, tested as hybridoma supernatant) VH: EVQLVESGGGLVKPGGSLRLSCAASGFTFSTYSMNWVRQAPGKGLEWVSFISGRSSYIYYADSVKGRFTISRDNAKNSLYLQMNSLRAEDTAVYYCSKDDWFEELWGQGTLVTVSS VL: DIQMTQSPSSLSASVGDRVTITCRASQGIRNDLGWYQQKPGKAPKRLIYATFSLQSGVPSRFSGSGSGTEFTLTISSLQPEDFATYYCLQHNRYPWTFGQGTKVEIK", 0.23],
  ["30F6 (antibody, V domains shown, Fully human mAb from XenoMouse hybridoma, tested as hybridoma supernatant) VH: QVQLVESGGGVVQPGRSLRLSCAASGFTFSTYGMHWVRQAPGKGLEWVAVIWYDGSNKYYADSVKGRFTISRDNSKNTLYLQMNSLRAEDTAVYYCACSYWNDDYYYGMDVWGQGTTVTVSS VL: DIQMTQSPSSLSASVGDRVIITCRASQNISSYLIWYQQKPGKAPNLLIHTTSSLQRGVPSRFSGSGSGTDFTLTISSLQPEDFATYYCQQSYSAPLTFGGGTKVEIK", 0.31]
]}
